Data provenance is the supplement of paper PMC10567573.

B1: COX4I1 (parent)
chain: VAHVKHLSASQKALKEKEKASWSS

variants of: B1; assay: protein stability index of a GFP-peptide fusion (GPS, HEK-293T) (PSI 1-6); higher = more stable; conditions: c terminus: a fixed tail appended;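 further: lentivirally expressed fusions sorted by FACS into six bins by GFP to DsRed ratio, PSI derived from sequencing read proportions per bin multiplied by bin number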
measurement label: protein stability index
Reply: number alone, nothing else.

Example entries and their recorded answers appear below.
H3D
4.11
A2F
2.23
K19M
2.7
A9I
3.35

(Q) What measured protein stability index goes with S24L ?
(A) 3.41

(Q) // repeat for L14S and report
(A) 3.05

(Q) Next record, please: H3W
(A) 2.1
